tested on: FGFR4-amplified Hep3B hepatocellular carcinoma cells; assay: Cell proliferation assay (SRB); type: cell-based; conditions: Homo sapiens, Hep3B; read-out: Cellular Anti-proliferative IC50, Hep3B
pIC50: −log10 of the molar value.
Record y whenever pIC50 is at 7 or higher; record n when lower.

Worked set:
Confirm if pIC50 reported for the compound `CNc1ncc2c(n1)N([C@@H]1CCN(C(=O)/C=C/CN(C)C)C1)C(=O)N(c1c(Cl)c(OC)cc(OC)c1Cl)C2` is 7 or above.
n

Confirm if pIC50 reported for the compound `COc1cc(OC)c(Cl)c(N2Cc3cnc(NC(C)C)nc3N([C@H]3CCN(C(=O)/C=C/CN(C)C)C3)C2=O)c1Cl` is 7 or above.
y

Confirm if pIC50 reported for the compound `CNc1ncc2c(n1)N([C@H]1CCN(C(=O)/C=C/CN(C)C)C1)C(=O)N(c1c(Cl)c(OC)cc(OC)c1Cl)C2` is 7 or above.
y

Confirm if pIC50 reported for the compound `CNc1ncc2c(n1)N([C@H]1CCCN(C(=O)/C=C/CN(C)C)C1)C(=O)N(c1c(Cl)c(OC)cc(OC)c1Cl)C2` is 7 or above.
n

Please look at the following compound next.
Confirm if pIC50 reported for the compound `COc1cc(OC)c(Cl)c(N2Cc3cnc(Nc4ccccc4)nc3N([C@H]3CCN(C(=O)/C=C/CN(C)C)C3)C2=O)c1Cl` is 7 or above.
y

###

target: FGFR3 (Homo sapiens); assay: Isolated enzyme FRET-based Z-Lyte kinase inhibition assay; details: means from 3 independent experiments; read-out: Isolate Enzyme Inhibition IC50, FGFR3
Sequence (P22607 23-806): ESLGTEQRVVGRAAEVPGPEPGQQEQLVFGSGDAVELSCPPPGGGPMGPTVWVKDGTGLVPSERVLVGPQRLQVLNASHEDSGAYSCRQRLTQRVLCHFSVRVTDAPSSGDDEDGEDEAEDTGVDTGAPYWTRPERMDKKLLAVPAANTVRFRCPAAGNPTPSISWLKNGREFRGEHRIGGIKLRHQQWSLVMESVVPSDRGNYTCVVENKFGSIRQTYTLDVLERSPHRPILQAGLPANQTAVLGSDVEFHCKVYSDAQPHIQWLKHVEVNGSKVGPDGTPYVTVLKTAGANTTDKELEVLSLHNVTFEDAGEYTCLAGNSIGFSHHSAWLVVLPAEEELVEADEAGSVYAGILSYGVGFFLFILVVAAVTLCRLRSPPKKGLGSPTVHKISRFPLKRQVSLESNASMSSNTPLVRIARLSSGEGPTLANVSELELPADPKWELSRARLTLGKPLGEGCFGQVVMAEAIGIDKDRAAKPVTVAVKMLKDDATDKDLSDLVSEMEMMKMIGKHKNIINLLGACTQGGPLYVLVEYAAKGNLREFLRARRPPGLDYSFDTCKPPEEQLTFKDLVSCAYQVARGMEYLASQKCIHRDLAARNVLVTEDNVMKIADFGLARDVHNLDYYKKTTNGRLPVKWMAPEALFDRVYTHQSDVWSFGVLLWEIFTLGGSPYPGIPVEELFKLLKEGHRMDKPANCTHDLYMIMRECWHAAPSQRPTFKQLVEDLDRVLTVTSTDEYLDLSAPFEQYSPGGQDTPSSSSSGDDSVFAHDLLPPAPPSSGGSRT
quantity name: IC50 (nM)
Field: numeric (nM). Do not append units.

Recall and state the measured IC50 for CNc1ncc2c(n1)N(C1CCC(NC(=O)/C=C/CN(C)C)CC1)C(=O)N(c1c(Cl)c(OC)cc(OC)c1Cl)C2 (stereo not shown) [Compound 126] .
6.8

Recall and state the measured IC50 for COc1cc(OC)c(Cl)c(-c2cc3cnc(NC4CCCCC4)nc3n(C3CCN(C(=O)/C=C/CN(C)C)CC3)c2=O)c1Cl [Compound 136] .
6.7

Recall and state the measured IC50 for CNc1ncc2c(n1)N([C@H]1CCN(C(=O)/C=C/CN(C)C)C1)C(=O)N(c1c(Cl)c(OC)cc(OC)c1Cl)C2 [Compound 103] .
17

Recall and state the measured IC50 for COc1cc(OC)c(Cl)c(N2Cc3cnc(NC4CCCCC4)nc3N([C@H]3CCN(C(=O)/C=C/CN(C)C)C3)C2=O)c1Cl [Compound 105] .
33

Recall and state the measured IC50 for COc1cc(OC)c(Br)c(N2Cc3cnc(NC(C)C)nc3N(C3CCN(C(=O)/C=C/CN(C)C)CC3)C2=O)c1Br [Compound 151] .
35

Consider the record given below.
Recall and state the measured IC50 for CNc1ncc2c(n1)N(Cc1cccc(NC(=O)/C=C/CN(C)C)c1)C(=O)N(c1c(Cl)c(OC)cc(OC)c1Cl)C2 [Compound 127] .
35

###

Test: Murine plasma pharmacokinetics assay
Format: in vivo, NIH-III nude mice
Conditions: female, NIH-III nude, mouse, plasma, ip, 80 mg/kg, 80 mg/kg intraperitoneal, plasma, model fit; read-out: Cmax
Method: Compound 204 was formulated in water for injection at 2 or 4 mg/ml to be administered by intraperitoneal injection at 0.02 ml/g body weight to achieve a 40 or 80 mg/kg dose. […] The resulting supernatant was diluted in 2 volumes of 0.01% formic acid in water and 10 uL injected onto the LC-MS/MS system using an established quantitative analysis method. […]
quantity name: Cmax (µM)
Field: numeric (µM). Do not append units.

Recall and state the measured Cmax for `COc1cc(OC)c(Cl)c(N2Cc3cnc(Nc4ccccc4)nc3N(C3CCN(C(=O)/C=C/C[N+](C)(C)Cc4c([N+](=O)[O-])ncn4C)CC3)C2=O)c1Cl.[Br-]` .
86.4

###

target: FGFR2 (Homo sapiens, UniProt P21802); test: Isolated enzyme FRET-based Z-Lyte kinase inhibition assay; conditions: means from 3 independent experiments; read-out: Isolate Enzyme Inhibition IC50, FGFR2
Sequence (P21802 22-821): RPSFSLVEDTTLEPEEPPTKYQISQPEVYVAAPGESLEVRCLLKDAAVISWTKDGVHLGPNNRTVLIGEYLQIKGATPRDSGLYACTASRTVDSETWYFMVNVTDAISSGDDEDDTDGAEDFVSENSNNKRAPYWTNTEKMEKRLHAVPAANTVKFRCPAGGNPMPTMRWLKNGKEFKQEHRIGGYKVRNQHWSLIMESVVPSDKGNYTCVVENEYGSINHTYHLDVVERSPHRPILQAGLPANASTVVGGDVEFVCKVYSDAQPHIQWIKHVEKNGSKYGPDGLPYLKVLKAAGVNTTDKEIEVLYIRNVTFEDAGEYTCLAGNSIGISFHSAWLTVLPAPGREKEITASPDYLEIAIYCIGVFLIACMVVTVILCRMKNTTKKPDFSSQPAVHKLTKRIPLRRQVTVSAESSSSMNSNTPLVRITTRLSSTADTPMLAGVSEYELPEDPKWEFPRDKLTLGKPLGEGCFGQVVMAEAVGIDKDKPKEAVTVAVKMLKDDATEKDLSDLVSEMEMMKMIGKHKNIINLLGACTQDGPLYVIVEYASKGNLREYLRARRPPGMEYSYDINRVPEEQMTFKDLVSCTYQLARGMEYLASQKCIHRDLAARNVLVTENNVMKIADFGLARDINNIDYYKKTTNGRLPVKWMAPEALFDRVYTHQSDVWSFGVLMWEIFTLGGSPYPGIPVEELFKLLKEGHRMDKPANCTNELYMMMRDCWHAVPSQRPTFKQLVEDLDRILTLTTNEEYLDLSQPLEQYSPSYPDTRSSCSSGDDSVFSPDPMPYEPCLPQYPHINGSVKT
quantity name: log10 IC50 (log10 of the value in nM)
Quick note: numbers are log10 of IC50, with nM as the unit.

Recall and state the measured log10 IC50 for `COc1cc(Nc2ncc3cc(-c4c(Cl)c(OC)cc(OC)c4Cl)c(=O)n(C4CCN(C(=O)/C=C/CN(C)C)CC4)c3n2)ccc1F` .
0.18

Recall and state the measured log10 IC50 for `COc1cc(OC)c(Cl)c(-c2cc3cnc(NC4CCOCC4)nc3n(C3CCN(C(=O)/C=C/CN(C)C)CC3)c2=O)c1Cl` .
0.08

Recall and state the measured log10 IC50 for `CNc1ncc2c(n1)N(C1CCN(C(=O)/C=C/CN3CCOCC3)CC1)C(=O)N(c1c(Cl)c(OC)cc(OC)c1Cl)C2` .
0.43

Recall and state the measured log10 IC50 for `COc1cc(OC)c(Cl)c(-c2cc3cnc(NC(C)C)nc3n(C3CCN(C(=O)/C=C/CN(C)C)CC3)c2=O)c1Cl` .
0.18

Recall and state the measured log10 IC50 for `CNc1ncc2c(n1)N(CCCNC(=O)/C=C/CN(C)C)C(=O)N(c1c(Cl)c(OC)cc(OC)c1Cl)C2` .
0.81

Continuing:
Recall and state the measured log10 IC50 for `COc1cc(OC)c(Cl)c(N2Cc3cnc(NC(C)C)nc3N([C@H]3CCN(C(=O)/C=C/CN(C)C)C3)C2=O)c1Cl` .
1.36

Recall and state the measured log10 IC50 for `COc1cc(OC)c(Cl)c(-c2cc3cnc(NC(C)C)nc3n(Cc3cccc(NC(=O)/C=C/CN(C)C)c3)c2=O)c1Cl` .
0.40

Recall and state the measured log10 IC50 for `COc1cc(OC)c(Br)c(-c2cc3cnc(Nc4ccccc4)nc3n(C3CCN(C(=O)/C=C/CN(C)C)CC3)c2=O)c1Br` .
0.04

Recall and state the measured log10 IC50 for `CNc1ncc2cc(-c3c(Cl)c(OC)cc(OC)c3Cl)c(=O)n(Cc3cccc(NC(=O)/C=C/CN(C)C)c3)c2n1` .
-0.05

###

target: recombinant FGFR1 (C584S) kinase domain (Homo sapiens, UniProt P11362, C584S); construct: made in house; host or cells: pETDuet vector, IPTG induction in Terrific Broth (bacterial); assay: FGFR1 (C584S) covalent binding protein mass spectrometry assay; settings: protein:inhibitor 1:10, 37° C.
Sequence (P11362 with tags, fused parts or gaps C584S): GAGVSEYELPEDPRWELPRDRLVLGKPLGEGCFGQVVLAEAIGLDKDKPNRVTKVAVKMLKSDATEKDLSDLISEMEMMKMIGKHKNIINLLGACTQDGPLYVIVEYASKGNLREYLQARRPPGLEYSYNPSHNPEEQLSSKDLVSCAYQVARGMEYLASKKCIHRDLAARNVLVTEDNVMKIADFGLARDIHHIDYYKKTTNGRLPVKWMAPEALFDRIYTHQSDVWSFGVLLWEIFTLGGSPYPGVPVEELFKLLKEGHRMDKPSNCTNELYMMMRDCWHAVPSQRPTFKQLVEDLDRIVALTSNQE
quantity name: % Conversion to FGFR1 (C584S) covalent adduct after 120 minutes incubation (%)
Field: numeric (%). Do not append units.

Recall and state the measured % Conversion to FGFR1 (C584S) covalent adduct after 120 minutes incubation for COc1cc(OC)cc(N2Cc3cnc(Nc4ccc(N5CCOCC5)cc4)nc3N(C3CCN(C(=O)/C=C/CN(C)C)CC3)C2=O)c1 [Compound 131] .
39

Recall and state the measured % Conversion to FGFR1 (C584S) covalent adduct after 120 minutes incubation for COc1cc(OC)c(Cl)c(N2Cc3cnc(Nc4ccc(N5CCOCC5)cc4)nc3N(C3CCN(C(=O)/C=C/CN(C)C)CC3)C2=O)c1 [Compound 130] .
46

Recall and state the measured % Conversion to FGFR1 (C584S) covalent adduct after 120 minutes incubation for COc1cc(OC)c(Cl)c(N2Cc3cnc(NC4CCCCC4)nc3N([C@H]3CCN(C(=O)/C=C/CN(C)C)C3)C2=O)c1Cl [Compound 105] .
8

Continuing:
Recall and state the measured % Conversion to FGFR1 (C584S) covalent adduct after 120 minutes incubation for COc1cc(OC)c(Cl)c(N2Cc3cnc(Nc4ccccc4)nc3N([C@H]3CCN(C(=O)/C=C/CN(C)C)C3)C2=O)c1Cl [Compound 106] .
11

###

tested on: H520 cells; assay: Oxic and anoxic anti-proliferative activity of the prodrugs; conditions: read-out: Cellular Anti-proliferative IC50, H520, Oxic; oxic conditions
# Lookup of reported IC50 keyed by entry
Field: numeric (nM). Do not append units.

Recall and state the measured IC50 for `COc1cc(OC)c(Cl)c(-c2cc3cnc(NC(C)C)cc3n(C3CCN(C(=O)/C=C/C[N+](C)(C)Cc4c([N+](=O)[O-])ncn4C)CC3)c2=O)c1Cl.[Br-]` .
4020

Recall and state the measured IC50 for `COc1cc(OC)c(Cl)c(N2Cc3cnc(NC(C)C)nc3N([C@H]3CCN(C(=O)/C=C/C[N+](C)(C)Cc4c([N+](=O)[O-])ncn4C)C3)C2=O)c1Cl.[Br-]` .
902

Recall and state the measured IC50 for `COc1cc(OC)c(Cl)c(N2Cc3cnc(NC(C)C)nc3N(C3CCN(C(=O)/C=C/C[N+](C)(C)Cc4c([N+](=O)[O-])ncn4C)CC3)C2=O)c1Cl.[Br-]` .
1730

Recall and state the measured IC50 for `COc1cc(OC)c(Cl)c(N2Cc3cnc(Nc4ccccc4)nc3N(C3CCN(C(=O)/C=C/C[N+](C)(C)Cc4c([N+](=O)[O-])ncn4C)CC3)C2=O)c1Cl.[Br-]` .
1260

Recall and state the measured IC50 for `COc1cc(OC)c(Cl)c(-c2cc3cnc(NC(C)C)nc3n(C3CCN(C(=O)/C=C/C[N+](C)(C)Cc4c([N+](=O)[O-])ncn4C)CC3)c2=O)c1Cl.[Br-]` .
1480

Continuing:
Recall and state the measured IC50 for `COc1cc(OC)c(Cl)c(-c2cc3cnc(Nc4ccccc4)nc3n(C3CCN(C(=O)/C=C/C[N+](C)(C)Cc4c([N+](=O)[O-])ncn4C)CC3)c2=O)c1Cl.[Br-]` .
817

Recall and state the measured IC50 for COc1cc(OC)c(Cl)c(N2Cc3cnc(Nc4ccc(F)cc4)nc3N(C3CCN(C(=O)/C=C/C[N+](C)(C)Cc4c([N+](=O)[O-])ncn4C)CC3)C2=O)c1Cl.O=C([O-])C(F)(F)F [Compound 205, 2,2,2-trifluoroacetate] .
668

Recall and state the measured IC50 for `CNc1ncc2c(n1)N([C@H]1CCN(C(=O)/C=C/C[N+](C)(C)Cc3c([N+](=O)[O-])ncn3C)C1)C(=O)N(c1c(Cl)c(OC)cc(OC)c1Cl)C2.[Br-]` .
3660

Recall and state the measured IC50 for `CNc1ncc2cc(-c3c(Cl)c(OC)cc(OC)c3Cl)c(=O)n(C3CCN(C(=O)/C=C/C[N+](C)(C)Cc4c([N+](=O)[O-])ncn4C)CC3)c2n1.[Br-]` .
4150
